- TARGET_DESC: pre-existing anti-VH ADA in human serum
- TEST_DETAILS: ADA confirmation assay (MSD): 10 ug/mL test material against labelled DOM1H-131-206, mean of 10 sera
OUTCOME_MEASURE: Mean % inhibition of signal in confirmation assay (%)

Some binders with known Mean % inhibition of signal in confirmation assay results, for comparison:
BINDER	TEST_RESULT
DOM1H-131-206 P14Q (protein, name in Kabat numbering) VH: EVQLLESGGGLVQQGGSLRLSCAASGFTFAHETMVWVRQAPGKGLEWVSHIPPDGQDPFYADSVKGRFTISRDNSKNTLYLQMNSLRAEDTAVYHCALLPKRGPWFDYWGQGTLVTVSS	52.9
DOM1H-131-206 P14K (protein, name in Kabat numbering) VH: EVQLLESGGGLVQKGGSLRLSCAASGFTFAHETMVWVRQAPGKGLEWVSHIPPDGQDPFYADSVKGRFTISRDNSKNTLYLQMNSLRAEDTAVYHCALLPKRGPWFDYWGQGTLVTVSS	46.7
DOM1H-131-206 P14T + C-terminal A (protein, name in Kabat numbering) VH: EVQLLESGGGLVQTGGSLRLSCAASGFTFAHETMVWVRQAPGKGLEWVSHIPPDGQDPFYADSVKGRFTISRDNSKNTLYLQMNSLRAEDTAVYHCALLPKRGPWFDYWGQGTLVTVSSA	33
DOM1H-131-206 C-terminal ASTKG (protein) VH: EVQLLESGGGLVQPGGSLRLSCAASGFTFAHETMVWVRQAPGKGLEWVSHIPPDGQDPFYADSVKGRFTISRDNSKNTLYLQMNSLRAEDTAVYHCALLPKRGPWFDYWGQGTLVTVSSASTKG	1.77
DOM1H-131-206 P14T + C-terminal ASTKG (protein, name in Kabat numbering) VH: EVQLLESGGGLVQTGGSLRLSCAASGFTFAHETMVWVRQAPGKGLEWVSHIPPDGQDPFYADSVKGRFTISRDNSKNTLYLQMNSLRAEDTAVYHCALLPKRGPWFDYWGQGTLVTVSSASTKG	17.2

P. DOM1H-131-206 P14Q + C-terminal A (protein, name in Kabat numbering) VH: EVQLLESGGGLVQQGGSLRLSCAASGFTFAHETMVWVRQAPGKGLEWVSHIPPDGQDPFYADSVKGRFTISRDNSKNTLYLQMNSLRAEDTAVYHCALLPKRGPWFDYWGQGTLVTVSSA
Q. DOM1H-131-206 T110A (protein, name in Kabat numbering) VH: EVQLLESGGGLVQPGGSLRLSCAASGFTFAHETMVWVRQAPGKGLEWVSHIPPDGQDPFYADSVKGRFTISRDNSKNTLYLQMNSLRAEDTAVYHCALLPKRGPWFDYWGQGTLVAVSS
In: Pick one: P or Q . Which has the bigger Mean % inhibition of signal in confirmation assay number? Please respond with the label that marks your chosen entry.
Out: Q
(Q: 78.8%, P: 29.7%)
